# TARGET SYSTEM: Large T antigen (Simian virus 40, UniProt P03070);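 note: Confirmatory-stage PubChem screen for compounds that inhibit SV40 T antigen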
# Sequence (P03070 whole entry): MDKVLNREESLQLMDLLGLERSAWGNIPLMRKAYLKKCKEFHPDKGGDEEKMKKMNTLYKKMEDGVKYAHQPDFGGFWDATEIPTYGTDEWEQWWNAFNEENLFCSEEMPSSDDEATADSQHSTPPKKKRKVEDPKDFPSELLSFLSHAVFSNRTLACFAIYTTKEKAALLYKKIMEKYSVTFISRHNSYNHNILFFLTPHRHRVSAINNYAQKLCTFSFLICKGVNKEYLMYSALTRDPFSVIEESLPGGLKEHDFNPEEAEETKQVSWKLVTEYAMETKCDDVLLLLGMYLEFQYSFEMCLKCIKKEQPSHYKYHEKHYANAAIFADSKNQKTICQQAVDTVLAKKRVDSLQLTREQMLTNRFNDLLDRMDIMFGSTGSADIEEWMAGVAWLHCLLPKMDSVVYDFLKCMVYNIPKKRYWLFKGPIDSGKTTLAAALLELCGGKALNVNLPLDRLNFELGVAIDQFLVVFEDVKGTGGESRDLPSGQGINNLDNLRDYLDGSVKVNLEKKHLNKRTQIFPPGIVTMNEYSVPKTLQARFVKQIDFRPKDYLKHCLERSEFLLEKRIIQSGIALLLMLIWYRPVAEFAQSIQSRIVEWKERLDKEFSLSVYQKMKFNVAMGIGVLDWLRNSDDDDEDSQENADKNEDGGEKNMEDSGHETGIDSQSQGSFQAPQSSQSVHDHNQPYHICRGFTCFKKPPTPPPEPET
# Type: functional, Betapolyomavirus macacae
Activity calls are given as the source filed them.
PARAMETER MEASURED: IC50

1. Cc1c(NC(=O)CN2CCN(c3ccc(O)cc3)CC2)c(=O)n(-c2ccccc2)n1C :: 13.7 µM (active)
2. O=C1NC(=S)N(C2CC2)C(=O)/C1=C/NNc1ccccc1 :: 8.87 µM (active)
3. CCOc1cc(/C=N/Nc2nc(-c3cccs3)c(NC(C)=O)s2)ccc1O :: 30.5 µM (active)
4. Cc1nc(C)c(-c2csc(Nc3ccc(N)cc3)n2)s1 :: 11.5 µM (active)

So, COc1cc(/C=C2/C(=O)ON=C2c2ccccc2)ccc1O ? Its IC50 was 9.98 µM (active)

Record summary for CC1(C)OC(=O)C(N=Nc2ccc(O)cc2)=C(O)O1 : reported IC50 = 6.72 µM (active)

IC50 for CCOc1cc(CNc2ccc(N3CCN(C(C)=O)CC3)cc2)cc(Br)c1OC is 8.75 µM (active)

====

# TARGET SYSTEM: Histone-lysine N-methyltransferase NSD2 (Homo sapiens, UniProt O96028)
# Sequence (O96028 whole entry): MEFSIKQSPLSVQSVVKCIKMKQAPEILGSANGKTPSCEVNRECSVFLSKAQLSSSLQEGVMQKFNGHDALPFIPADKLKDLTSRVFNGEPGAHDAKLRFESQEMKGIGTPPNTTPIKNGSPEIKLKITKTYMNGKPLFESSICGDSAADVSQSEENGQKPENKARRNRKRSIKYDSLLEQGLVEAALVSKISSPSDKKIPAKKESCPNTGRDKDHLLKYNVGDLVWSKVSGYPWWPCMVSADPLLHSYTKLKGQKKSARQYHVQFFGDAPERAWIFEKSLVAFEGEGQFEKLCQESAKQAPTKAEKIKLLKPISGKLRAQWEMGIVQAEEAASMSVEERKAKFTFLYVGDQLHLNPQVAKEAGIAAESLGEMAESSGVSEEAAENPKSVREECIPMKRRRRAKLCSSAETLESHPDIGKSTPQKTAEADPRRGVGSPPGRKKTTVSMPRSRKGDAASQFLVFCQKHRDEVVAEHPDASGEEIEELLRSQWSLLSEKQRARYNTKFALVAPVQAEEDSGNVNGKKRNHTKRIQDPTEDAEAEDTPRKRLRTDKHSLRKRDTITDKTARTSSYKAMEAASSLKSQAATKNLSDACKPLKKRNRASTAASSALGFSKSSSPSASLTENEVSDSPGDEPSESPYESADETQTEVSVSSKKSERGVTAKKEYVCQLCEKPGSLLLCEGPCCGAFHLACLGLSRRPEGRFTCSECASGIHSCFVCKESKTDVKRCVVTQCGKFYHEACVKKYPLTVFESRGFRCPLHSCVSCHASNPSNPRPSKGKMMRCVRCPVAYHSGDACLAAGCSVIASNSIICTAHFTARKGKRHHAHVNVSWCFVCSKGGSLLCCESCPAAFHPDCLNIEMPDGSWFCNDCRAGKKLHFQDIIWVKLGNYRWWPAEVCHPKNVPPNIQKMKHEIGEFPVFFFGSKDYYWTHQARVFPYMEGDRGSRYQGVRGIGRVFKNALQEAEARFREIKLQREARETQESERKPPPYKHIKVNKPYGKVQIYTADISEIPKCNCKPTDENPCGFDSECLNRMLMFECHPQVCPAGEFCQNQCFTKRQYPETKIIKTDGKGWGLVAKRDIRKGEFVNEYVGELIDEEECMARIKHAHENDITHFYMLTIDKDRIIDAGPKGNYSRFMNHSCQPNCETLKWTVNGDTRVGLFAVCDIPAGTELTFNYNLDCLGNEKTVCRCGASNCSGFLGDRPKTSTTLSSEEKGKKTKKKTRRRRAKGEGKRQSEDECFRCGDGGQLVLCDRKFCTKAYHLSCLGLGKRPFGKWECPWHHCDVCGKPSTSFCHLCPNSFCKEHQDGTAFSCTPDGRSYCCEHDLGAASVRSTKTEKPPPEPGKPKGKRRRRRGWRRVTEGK
# Format: biochemical
Activity calls are given as the source filed them.
The reply should name one outcome from 1.0 = active, 0.0 = inactive

Solved entries (count: 3):
1. Cc1cc(C)c(Nc2cc(S(=O)(=O)O)c(N)c3c2C(=O)c2ccccc2C3=O)c(C)c1 :: 1.0
2. O=C(CCCN1C(=O)/C(=C/c2ccco2)SC1=S)Nc1cccc(C(=O)O)c1 :: 0.0
3. O=C(O)c1ccc(CSc2n[nH]c(-c3ccco3)n2)cc1 :: 0.0

Recorded test call requested for CCOC(=O)c1c(NS(=O)(=O)c2ccccc2)n(CCCOC)c2nc3ccccc3nc12 1.0

Which result was noted for this compound in the test: O=C(COC(=O)c1ccc([N+](=O)[O-])s1)NCCc1ccccc1 0.0

====

# EXPERIMENT DESCRIPTION: reduction of Shn3 3'UTR-driven luciferase in osteoblasts – cell-based, Clone20 osteoblasts, firefly luciferase, cherry-picked, dose response (AID 624132);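 note: firefly luciferase luminescence from reporter carrying the Shn3 3'UTR in osteoblasts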
# Type: functional
The source made the active and inactive calls.
AC50 reference

Some solved entries appear below for comparison.
1) C=CCNc1nc(-c2ccccn2)nnc1-c1ccccc1 :: 3.17 µM (active)
2) CCOC(=O)c1c(NC(=O)C2c3ccccc3Oc3ccccc32)sc(C(C)=O)c1C :: 4.67 µM (active)
3) C=CCn1c(C)cc(C(=O)CN2C(=O)c3ccccc3S2(=O)=O)c1C :: 0.974 µM (active)

AC50 measured on Cc1ccc(CNC(=O)CSc2c3c(nc4ccc(Cl)cc24)CCCC3)o1 = 5.98 µM (active)

====

EC50 values by entry
# TARGET SYSTEM: RNA-binding protein pos-1 (Caenorhabditis elegans)
# Sequence (G5EF15 whole entry): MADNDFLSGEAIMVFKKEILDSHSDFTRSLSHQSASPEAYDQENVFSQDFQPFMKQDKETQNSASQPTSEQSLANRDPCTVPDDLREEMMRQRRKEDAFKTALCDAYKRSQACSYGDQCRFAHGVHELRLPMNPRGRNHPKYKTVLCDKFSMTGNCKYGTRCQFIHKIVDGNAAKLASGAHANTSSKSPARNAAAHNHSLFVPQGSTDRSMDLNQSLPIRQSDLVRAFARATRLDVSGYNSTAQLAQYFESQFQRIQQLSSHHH
# EXPERIMENT DESCRIPTION: disruptors of C. elegans POS-1 RNA interaction – biochemical, fluorescence polarization, dose response (AID 1964);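 note: purified POS-1 fused to maltose binding protein made in E. coli; potency of compounds blocking POS-1 binding to fluorescent RNA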

// sample N=C1c2ccccc2CN1NC(=O)CC12CC3CC(CC(C3)C1)C2 , its EC50 was > 300 µM (not active)
